Tested on: KM12 colon
experimental_protocol: NCI tumour cell line growth inhibition, 48 h
Measured TGI by item

{"compound": "C=C1N(C)c2ccc(S(=O)(=O)c3ccc4c(c3)C(C)(C)C(=C)N4C)cc2C1(C)C", "measured_target": "KM12 colon", "TGI": "> 100 µM"}
{"compound": "COc1ccc2[nH]c(C(=O)OCc3ccc4c(Br)cc(Br)c(O)c4n3)cc2c1", "measured_target": "KM12 colon", "TGI": "3.38 µM"}
{"compound": "CCN1C(=O)/C(=c2\\sc3n(c2=O)C2C(NN=3)N(CC)C(=O)N2CC)c2ccccc21 (stereo not given)", "measured_target": "KM12 colon", "TGI": "> 73.4 µM"}
{"compound": "CO[P@@]1(=O)O[C@@H](c2ccccc2)[C@H](O)[C@@]1(O)c1ccccc1", "measured_target": "KM12 colon", "TGI": "> 100 µM"}
{"compound": "O=C(O)c1ccc(CSc2nc3ccccc3[nH]2)cc1", "measured_target": "KM12 colon", "TGI": "> 100 µM"}
{"compound": "NS(=O)(=O)c1ccc(N=Nc2c(O)[nH]c3ccc(C(=O)NCCCn4ccnc4)cc23)cc1", "measured_target": "KM12 colon", "TGI": "> 25 µM"}
{"compound": "CCOC(=O)N1c2ccccc2N(C(=O)OCC)C1CC(=O)/C=C/c1ccccc1", "measured_target": "KM12 colon", "TGI": "9.51 µM"}
{"compound": "c1ccc(-c2cc3nc4ccccc4nc3cc(-c3ccccc3)[nH][nH]2)cc1", "measured_target": "KM12 colon", "TGI": "> 100 µM"}
{"compound": "CCOC(=O)c1c(C)n([O-])c2cc(F)c(F)cc2[n+]1=O", "measured_target": "KM12 colon", "TGI": "35.6 µM"}
{"compound": "Cc1ccc(NC(=S)NNC(=S)Nc2ccc(C)cc2)cc1", "measured_target": "KM12 colon", "TGI": "> 100 µM"}
{"compound": "Cc1[nH]c(=O)n2c(C)nnc2c1C(=O)O", "measured_target": "KM12 colon", "TGI": "> 100 µM"}
{"compound": "COc1ccc(/C=C2/SC(=Nc3ccccc3)N(NC(=O)Cc3ccccc3)C2=O)cc1", "measured_target": "KM12 colon", "TGI": "> 100 µM"}
{"compound": "Cc1nc2ccc(-n3ncc(C(=O)c4cc5ccccc5[nH]4)c3N)cc2[nH]1", "measured_target": "KM12 colon", "TGI": "43.1 µM"}
{"compound": "CN(C)c1n2c3ccc([N+](=O)[O-])cc3n3c(N(C)C)[n+]4ccccc4c3c2c2cccc[n+]12", "measured_target": "KM12 colon", "TGI": "> 100 µM"}
{"compound": "CC(C)C[C@H](NC(=O)[C@@H](Cc1ccccc1)n1ccc(Nc2ccccc2)cc1=O)B(O)O", "measured_target": "KM12 colon", "TGI": "1.51 µM"}
{"compound": "Cc1cn2c(/C=N/N=C(N)N)c(-c3ccc([N+](=O)[O-])cc3)nc2s1", "measured_target": "KM12 colon", "TGI": "1.72 µM"}
{"compound": "CCOC(=O)C(C(=O)OCC)=C1C=C(c2ccccc2)c2ccccc21", "measured_target": "KM12 colon", "TGI": "> 100 µM"}
{"compound": "C[n+]1cccc(NC(=O)c2ccc3ccc4ccc(C(=O)Nc5ccc[n+](C)c5)nc4c3n2)c1", "measured_target": "KM12 colon", "TGI": "> 100 µM"}
{"compound": "NNC(=O)/C(NC(=O)c1ccccc1)=C(\\N)c1cccc([N+](=O)[O-])c1", "measured_target": "KM12 colon", "TGI": "> 100 µM"}
{"compound": "COc1ccc2nc3cccc([N+](=O)[O-])c3c(NCCC(=O)O)c2c1", "measured_target": "KM12 colon", "TGI": "> 10 µM"}
